target of assay: CSK (Homo sapiens, UniProt P41240)
Construct: purchased Eurofins DiscoverX KINOMEscan (scanTK)
Sequence (P41240 whole entry): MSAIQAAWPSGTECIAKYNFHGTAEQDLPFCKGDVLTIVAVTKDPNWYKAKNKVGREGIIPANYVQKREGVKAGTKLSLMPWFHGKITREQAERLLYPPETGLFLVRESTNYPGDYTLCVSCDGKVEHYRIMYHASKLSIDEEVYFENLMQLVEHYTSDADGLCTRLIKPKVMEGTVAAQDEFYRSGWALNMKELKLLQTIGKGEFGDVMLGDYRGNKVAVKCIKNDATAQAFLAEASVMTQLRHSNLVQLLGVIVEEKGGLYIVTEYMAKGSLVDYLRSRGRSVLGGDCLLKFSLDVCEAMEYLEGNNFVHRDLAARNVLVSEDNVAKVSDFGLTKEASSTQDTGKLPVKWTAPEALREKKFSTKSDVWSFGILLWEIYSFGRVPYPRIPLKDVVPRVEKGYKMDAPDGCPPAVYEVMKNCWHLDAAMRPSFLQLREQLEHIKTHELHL
method notes: KINOMEscan ScanTK
Format: binding
measurement context: @1000nM, read-out: %Control
Note to self: use Met only for remaining binding at 1 µM readings below 8%; a reading exactly at 8% still gets Not met.

Known results for compounds:
>>> class_name("COC(=O)c1cnc(S(C)(=O)=O)nc1N1CCCC(n2nc(-c3ccc(Oc4ccccc4)cc3)c3c(N)ncnc32)C1 (centres unmarked) [Compound 8b]")
"Not met"
>>> class_name("C=CC(=O)N1CCC[C@@H](n2nc(-c3ccc(Oc4ccccc4)cc3)c3c(N)ncnc32)C1 [Compound 1g, Ibrutinib, reference compound]")
"Met"
>>> class_name("CCOC(=O)c1cnc(S(C)(=O)=O)nc1N1CCC[C@@H](n2nc(-c3ccc(Oc4ccccc4)cc3)c3c(N)ncnc32)C1 [Compound 8c]")
"Not met"

Now turn to the next compound.
Input: Hello, is remaining binding at 1 µM of the following compound strictly smaller than 8%? Cc1cnc(S(C)(=O)=O)nc1N1CCCC(n2nc(-c3ccc(Oc4ccccc4)cc3)c3c(N)ncnc32)C1 (centres unmarked) [Compound 8a]
Output: Met
